Reported RP-LC retention time values follow for various compounds
- Test description: gradient 5% acetonitrile 3 min, to 50% in 2 min, to 85% in 15 min, held 3 min, 100 µL/min
- Test conditions: column: Zorbax Extend-C18 2.1 x 50 mm; eluents: water / acetonitrile, 0.1% formic acid
Hi! Could you send only the number? It should be in s, unit omitted.

These solved cases illustrate the format of a correct answer.
Compound | Numeric result
O=C1CCC(C(=O)N2CCN(c3ccc(-n4cccn4)nn3)CC2)N1 (stereo not given) | 548
O=C(Nc1cncc(-c2nc3ccccc3o2)c1)c1cccc(Cl)c1 | 1010
CCNc1cc(N2CCC(CCC(=O)NCc3cc(F)ccc3F)CC2)ncn1 | 666
Cc1cc(N2CCN(C)CC2)nc2ccc(NC(=S)NCc3cccs3)cc12 | 576

// next item, RP-LC retention time requested
Query: Look up RP-LC retention time of O=C(c1ccc(S(=O)(=O)c2ccccc2)nc1)N1CCN(C2CCCCC2)CC1 and report it.
Result: 566
